tgt: CYP2C9 (Homo sapiens, UniProt P11712)
Sequence (P11712 whole entry): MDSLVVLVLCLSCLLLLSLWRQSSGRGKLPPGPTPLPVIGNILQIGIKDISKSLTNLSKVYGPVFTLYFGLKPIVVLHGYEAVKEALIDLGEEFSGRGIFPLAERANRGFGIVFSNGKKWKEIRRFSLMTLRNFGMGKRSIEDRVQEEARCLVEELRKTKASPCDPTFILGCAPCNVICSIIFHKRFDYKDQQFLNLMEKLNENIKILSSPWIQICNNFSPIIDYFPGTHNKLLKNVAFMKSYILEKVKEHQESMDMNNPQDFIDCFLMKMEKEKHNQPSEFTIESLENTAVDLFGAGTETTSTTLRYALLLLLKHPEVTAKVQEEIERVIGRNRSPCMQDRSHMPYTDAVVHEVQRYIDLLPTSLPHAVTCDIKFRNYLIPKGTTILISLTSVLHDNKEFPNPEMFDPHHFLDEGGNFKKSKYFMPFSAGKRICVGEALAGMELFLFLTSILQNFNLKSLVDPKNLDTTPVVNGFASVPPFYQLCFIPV
method_description: […] of CYP2C9 in human microsomes at 10 uM using diclofenac as substrate preincubated for 5 mins followed by NADPH addition measured 20 mins relative to control
Assay type: ADME
stated_conditions: human microsomes, probe diclofenac, read-out: TDI
measured_attribute: inhibition at 20 min, 10 µM (%)

>>> measured_value("Cc1cc(-c2ccc(Cn3c(C)nc4c(N5CCOCC5)ncnc43)cc2)ccn1")
10
>>> measured_value("Cc1nc2c(N3CCOCC3)ncnc2n1Cc1ccc(-c2ccccc2Cl)cc1")
10
>>> measured_value("Cc1nc2c(N3CCOCC3)ncnc2n1Cc1ccc(-c2cnn(C)c2)cc1")
40
